tested on: HOP-92 NSCLC; assay: NCI tumour cell line growth inhibition, 48 h

{"COMPOUND": "C=CC(O)(CBr)CCC(Br)C(C)(C)Cl (centres undefined)", "RELATIONAL OPERATOR": ">", "TGI (µM)": 10}
{"COMPOUND": "CCOC(=O)CNC(=O)C(CSCC1C(=O)Nc2ccccc21)NC(=O)CCC(N)C(=O)OCC (centres undefined)", "RELATIONAL OPERATOR": "=", "TGI (µM)": 5.03}
{"COMPOUND": "COc1cccc2c1C(=O)c1c(O)c3c(c(O)c1C2=O)C[C@@](O)(C(=O)CO)C[C@@H]3OC1CC(N(C)C)C(O)C(C)O1 (some centres undefined)", "RELATIONAL OPERATOR": "=", "TGI (µM)": 0.312}
{"COMPOUND": "C#CC1(O)C(COP(=O)(O)OC(COCCCCCCCCCCCCCCCCCC)COP(=O)(O)OCC2OC(n3cc(C)c(=O)[nH]c3=O)CC2N=[N+]=[N-])OC(n2ccc(N)nc2=O)C1O (centres undefined)", "RELATIONAL OPERATOR": "=", "TGI (µM)": 31.9}
